Tested on: CEM
assayRemarks: MTT assay, CEM
Assay type: cell-based
measurementSetup: Homo sapiens, CCRF-CEM
pIC50: −log10 of the molar value.
measuredProperty: pIC50

Query string: Consider the compound shown here: Oc1nc(S)nc(/N=C/c2ccccc2)c1/N=C/c1ccccc1 What is its recorded pIC50?
Result string: < 4.00
